Data provenance: PubChem BioAssay AID1259407

Tested on: CCRIS mutagenicity, Ames/micronucleus/aberration tests
Experiment: CCRIS mutagenicity studies
Details: Test System: AMES SALMONELLA TYPHIMURIUM; Strain/Indicator: TA100; Metabolic Activation: RAT, LIVER, S-9, AROCLOR 1254; Method: STANDARD PLATE
The source made the active and inactive calls. No rule for the calls is given here.
Classes used: 1 (active), 0 (inactive)

{"columns": ["compound", "experimentalTarget", "discreteLabel"],
 "data": [
  ["O=C(O)c1ccccc1[N+](=O)[O-]", "CCRIS mutagenicity, Ames/micronucleus/aberration tests", 0],
  ["Cc1ccccc1N", "CCRIS mutagenicity, Ames/micronucleus/aberration tests", 0],
  ["CCOc1cc2c(c3ccc4ccccc4c13)CCC2=O", "CCRIS mutagenicity, Ames/micronucleus/aberration tests", 0],
  ["[O-][N+](=Nc1ccc(Cl)c(Cl)c1)c1ccc(Cl)c(Cl)c1", "CCRIS mutagenicity, Ames/micronucleus/aberration tests", 0],
  ["Cc1c(C)c2c(c(C)c1O)CC[C@@](C)(CCC[C@H](C)CCC[C@H](C)CCCC(C)C)O2", "CCRIS mutagenicity, Ames/micronucleus/aberration tests", 0],
  ["COC/C(=C/c1ccccc1)OC", "CCRIS mutagenicity, Ames/micronucleus/aberration tests", 0],
  ["Cc1cc(C)c2c(ccc3ccccc32)c1", "CCRIS mutagenicity, Ames/micronucleus/aberration tests", 1],
  ["CCCCC(CC)COP(=O)(OCC(CC)CCCC)OCC(CC)CCCC (stereo unspecified)", "CCRIS mutagenicity, Ames/micronucleus/aberration tests", 0],
  ["C=C(Cl)CCl", "CCRIS mutagenicity, Ames/micronucleus/aberration tests", 1],
  ["CS(C)=O", "CCRIS mutagenicity, Ames/micronucleus/aberration tests", 0],
  ["Oc1cccc2c1-c1cc3cccc4ccc5ccc-2c1c5c43", "CCRIS mutagenicity, Ames/micronucleus/aberration tests", 1],
  ["CC(=O)CC(=O)CCC(=O)O", "CCRIS mutagenicity, Ames/micronucleus/aberration tests", 0],
  ["C1COCCOCCOCCOCCOCCOCCO1", "CCRIS mutagenicity, Ames/micronucleus/aberration tests", 0],
  ["CC(C)NCC(O)COc1cccc2c1C=CC2 (stereo unspecified)", "CCRIS mutagenicity, Ames/micronucleus/aberration tests", 0],
  ["O=C(O)C(Cl)Cl", "CCRIS mutagenicity, Ames/micronucleus/aberration tests", 0],
  ["OCCNc1ccc(N=Nc2ccc(NCCO)cc2)cc1", "CCRIS mutagenicity, Ames/micronucleus/aberration tests", 0],
  ["CCCCCCCCCCSCn1cc[n+](C)c1", "CCRIS mutagenicity, Ames/micronucleus/aberration tests", 1],
  ["Cn1c2ccc3ccccc3c2c2c3ccccc3ccc21", "CCRIS mutagenicity, Ames/micronucleus/aberration tests", 1],
  ["CCCCCn1cc2c3c(cccc31)[C@H]1C=C(C)CN(C)[C@@H]1C2", "CCRIS mutagenicity, Ames/micronucleus/aberration tests", 1],
  ["c1ccc2c(c1)ccc1cc3c(ccc4ccccc43)cc12", "CCRIS mutagenicity, Ames/micronucleus/aberration tests", 1],
  ["O=C(O)COc1ccc(Cl)cc1", "CCRIS mutagenicity, Ames/micronucleus/aberration tests", 0],
  ["COc1c2c(cc3oc4c(CCC(C)(C)O)ccc(O)c4c(=O)c13)O[C@H]1OC=C[C@@H]21", "CCRIS mutagenicity, Ames/micronucleus/aberration tests", 1],
  ["O=c1c(Cl)c(Cl)cnn1S(=O)(=O)c1ccc(Cl)cc1Cl", "CCRIS mutagenicity, Ames/micronucleus/aberration tests", 0],
  ["O=P(O)(OCC(Br)CBr)OCC(Br)CBr (stereo unspecified)", "CCRIS mutagenicity, Ames/micronucleus/aberration tests", 1],
  ["Nc1cc2c(O)c(N=Nc3ccc(N=Nc4ccc(S(=O)(=O)O)cc4)c4ccc(S(=O)O)cc34)c(S(=O)(=O)O)cc2cc1S(=O)(=O)O", "CCRIS mutagenicity, Ames/micronucleus/aberration tests", 0],
  ["O=C(O)CN(CC(=O)O)CC(=O)O", "CCRIS mutagenicity, Ames/micronucleus/aberration tests", 0],
  ["Cc1ccc(C)c(C)c1", "CCRIS mutagenicity, Ames/micronucleus/aberration tests", 0],
  ["COc1cccc2c1C(=O)c1c(O)c3c(c(O)c1C2=O)C[C@@](O)(C(=O)CO)C[C@@H]3O[C@H]1C[C@H](N)[C@H](O)[C@H](C)O1", "CCRIS mutagenicity, Ames/micronucleus/aberration tests", 0],
  ["Nc1ccc(S(=O)(=O)Nc2nccs2)cc1", "CCRIS mutagenicity, Ames/micronucleus/aberration tests", 0],
  ["Fc1ccc2c3c(cccc13)-c1cc3ccccc3cc1-2", "CCRIS mutagenicity, Ames/micronucleus/aberration tests", 1],
  ["Cc1c(N(C)C)c(=O)n(-c2ccccc2)n1C", "CCRIS mutagenicity, Ames/micronucleus/aberration tests", 0],
  ["CC1C=Cc2ccc3ccc4ccccc4c3c21 (stereo unspecified)", "CCRIS mutagenicity, Ames/micronucleus/aberration tests", 0],
  ["OC[C@H]1O[C@@H](n2cnc3c(NC[C@H](O)COc4cccc5ccccc45)ncnc32)[C@H](O)[C@@H]1O", "CCRIS mutagenicity, Ames/micronucleus/aberration tests", 0],
  ["O=C(c1ccccc1)C1OC1c1ccccc1 (stereo unspecified)", "CCRIS mutagenicity, Ames/micronucleus/aberration tests", 1],
  ["Cc1ccc2c(c1)-c1ccccc1C2C (stereo unspecified)", "CCRIS mutagenicity, Ames/micronucleus/aberration tests", 1],
  ["OCl", "CCRIS mutagenicity, Ames/micronucleus/aberration tests", 0],
  ["COc1cc2c(c3oc(=O)c4c(c13)CCC4=O)[C@@H]1CCO[C@@H]1O2", "CCRIS mutagenicity, Ames/micronucleus/aberration tests", 1],
  ["Oc1cccc(Cl)c1", "CCRIS mutagenicity, Ames/micronucleus/aberration tests", 0],
  ["C=C(C)C(=O)OC(C)(C)C", "CCRIS mutagenicity, Ames/micronucleus/aberration tests", 0],
  ["O[C@H]1C=Cc2c(ccc3ncccc23)[C@@H]1O", "CCRIS mutagenicity, Ames/micronucleus/aberration tests", 0],
  ["COC(=O)Nc1nc2ccccc2[nH]1", "CCRIS mutagenicity, Ames/micronucleus/aberration tests", 0],
  ["CC(=O)c1c(O)cc(O)c2c1C(=O)c1cc(O)cc(O)c1C2=O", "CCRIS mutagenicity, Ames/micronucleus/aberration tests", 0],
  ["C=C1CC[C@H]2C[C@@H]1C2(C)C", "CCRIS mutagenicity, Ames/micronucleus/aberration tests", 0],
  ["CC(=O)Nc1ccc(Oc2c(Cl)cc(Cl)cc2Cl)cc1", "CCRIS mutagenicity, Ames/micronucleus/aberration tests", 1],
  ["Clc1ccc(N=Nc2ccc(Cl)c(Cl)c2)cc1Cl", "CCRIS mutagenicity, Ames/micronucleus/aberration tests", 0],
  ["Cc1cccc2cc3ccccc3cc12", "CCRIS mutagenicity, Ames/micronucleus/aberration tests", 0]
]}
